- Test system: T. gondii RH strain tachyzoites
- assay_details: [3H]uracil incorporation assay of T. gondii proliferation in L929 host cells
- Assay type: cell-based, Toxoplasma gondii
- condition_set: 10 µg/mL, assay A [3H]uracil incorporation, vs untreated blank
parameter: intensity of T. gondii proliferation (%)

smi	value_reported
O=C(NNC(=S)Nc1ccc(F)cc1)c1cccs1	44.71
Cc1ccccc1NC(=S)NNC(=O)c1ccoc1C	112.25
Cc1nnsc1C(=O)NNC(=S)Nc1ccccc1Br	83.84
Cc1nnsc1C(=O)NNC(=S)Nc1ccc(F)cc1F	103.21

###

- assay_details: MTT cell viability assay (ISO 10993-5)
- Format: cell-based, mouse
- condition_set: mouse, 100 µg/mL, 24 h, ± SD, read-out: viability of L929 cells
- Method: Cell line L929 (ATTC® Catalog No. […] The MTT assay was used according to international standards: ISO 10993-5:2009(E), Biological evaluation of medical devices, Part 5: Tests for in vitro cytotoxicity. […] Then, 1 mg/mL MTT (50 μL/well) was added to each well and incubated at 37 °C, 10% CO2 for 2 h. […] Optical density (OD) was read on the ELISA reader (Multiskan EX, Labsystems, Vienna, VA, USA) at 550 nm. […]
parameter: viability at 24 h, 100 µg/mL (%)

smi	unit_tag	value_reported
O=C(NNC(=S)Nc1ccc(F)cc1)c1cccs1	%	67

###

# viability at 24 h, 50 µg/mL values compiled below
- assay_details: MTT cell viability assay (ISO 10993-5)
- Type: cell-based, mouse
- condition_set: mouse, L929 mouse fibroblast cells, 50 µg/mL, 24 h, ± SD

molecule	viability at 24 h, 50 µg/mL, %
Cc1nnsc1C(=O)NNC(=S)Nc1ccccc1Br [Compound 3d]	90.9
Cc1ccccc1NC(=S)NNC(=O)c1ccoc1C [Compound 2b]	84.5
Cc1nnsc1C(=O)NNC(=S)Nc1ccc(F)cc1F [Compound 3l]	99

###

- assay_details: MTT cell viability assay (ISO 10993-5)
- Type: cell-based, mouse
- condition_set: mouse, L929 mouse fibroblast cells, 500 µg/mL, 24 h, ± SD

smi	viability at 24 h, 500 µg/mL [%]
Cc1nnsc1C(=O)NNC(=S)Nc1ccc(F)cc1F	48
Cc1nnsc1C(=O)NNC(=S)Nc1ccccc1Br	41.5
Cc1ccccc1NC(=S)NNC(=O)c1ccoc1C	30.3

###

- assay_details: MTT cell viability assay (ISO 10993-5)
- Format: cell-based, mouse
- condition_set: mouse, 10 µg/mL, 24 h, ± SD, read-out: viability of L929 cells

smi	viability at 24 h, 10 µg/mL / %
O=C(NNC(=S)Nc1ccc(F)cc1)c1cccs1	97.3

###

- assay_details: MTT cell viability assay (ISO 10993-5)
- Type: cell-based, mouse
- condition_set: mouse, 500 µg/mL, 24 h, ± SD, read-out: viability of L929 cells

smi	unit_tag	viability at 24 h, 500 µg/mL
O=C(NNC(=S)Nc1ccc(F)cc1)c1cccs1	%	39.8

###

- System: T. gondii RH strain tachyzoites
- assay_details: [3H]uracil incorporation assay of T. gondii proliferation in L929 host cells
- Assay type: cell-based, Toxoplasma gondii
- condition_set: 5 µg/mL, assay A [3H]uracil incorporation, vs untreated blank
# intensity of T. gondii proliferation values compiled below

molecule	study_target	intensity of T. gondii proliferation (%)
Cc1nnsc1C(=O)NNC(=S)Nc1ccc(F)cc1F [Compound 3l]	T. gondii RH strain tachyzoites	85.76
Cc1nnsc1C(=O)NNC(=S)Nc1ccccc1Br [Compound 3d]	T. gondii RH strain tachyzoites	84.64
Cc1ccccc1NC(=S)NNC(=O)c1ccoc1C [Compound 2b]	T. gondii RH strain tachyzoites	107.95
O=C(NNC(=S)Nc1ccc(F)cc1)c1cccs1 [Compound 1g]	T. gondii RH strain tachyzoites	74.94

###

- assay_details: MTT cell viability assay (ISO 10993-5)
- Type: cell-based, mouse
- condition_set: mouse, 5 µg/mL, 24 h, ± SD, read-out: viability of L929 cells

smi	viability at 24 h, 5 µg/mL
O=C(NNC(=S)Nc1ccc(F)cc1)c1cccs1	99.5%

###

# IC50 values compiled below
- System: T. gondii RH strain tachyzoites
- assay_details: [3H]uracil incorporation assay of T. gondii proliferation in L929 host cells
- Assay type: cell-based
- condition_set: Toxoplasma gondii, L929, read-out: IC50 (50% of T. gondii proliferation inhibition in vitro)
parameter: IC50 (µg/mL)

molecule	comparison_symbol	value_reported
Cc1nnsc1C(=O)NNC(=S)Nc1ccc(F)cc1F	=	92.3
Cc1ccccc1NC(=S)NNC(=O)c1ccoc1C	=	59
O=C(NNC(=S)Nc1ccc(F)cc1)c1cccs1	=	33.2
Cc1nnsc1C(=O)NNC(=S)Nc1ccccc1Br	=	74.9
Nc1ccc(S(=O)(=O)Nc2ncccn2)cc1 [sulfadiazine, reference compound]	>	500

###

- assay_details: MTT cell viability assay (ISO 10993-5)
- Assay type: cell-based, mouse
- condition_set: mouse, 50 µg/mL, 24 h, ± SD, read-out: viability of L929 cells
parameter: viability at 24 h, 50 µg/mL (%)

smi	value_reported
O=C(NNC(=S)Nc1ccc(F)cc1)c1cccs1	79

###

# viability at 24 h, 1 µg/mL values compiled below
- assay_details: MTT cell viability assay (ISO 10993-5)
- Type: cell-based, mouse
- condition_set: mouse, L929 mouse fibroblast cells, 1 µg/mL, 24 h, ± SD

smi	viability at 24 h, 1 µg/mL
Cc1ccccc1NC(=S)NNC(=O)c1ccoc1C	95.3%
Cc1nnsc1C(=O)NNC(=S)Nc1ccc(F)cc1F	96.5%
Cc1nnsc1C(=O)NNC(=S)Nc1ccccc1Br	102%
